Reference for the values: the supplement of paper PMC10567573

B1: GAGE1 (parent)
chain: RPRRYVQPPEMIGPMRPEQFSDEV

Variants of: B1
Assay: protein stability index of a GFP-peptide fusion (GPS, HEK-293T) (PSI 1-6); higher = more stable;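 note: lentivirally expressed fusions sorted by FACS into six bins by GFP to DsRed ratio, PSI derived from sequencing read proportions per bin multiplied by bin number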
Settings: c terminus: a fixed tail appended
Answer each item with its documented protein stability index.
Please give the numeric answer without any surrounding text.

Prompt: Value lookup for protein stability index; key = RPRRYVQPPEMIGPMRPEQFSLEV [D22L]
Response: 2.6

Prompt: Value lookup for protein stability index; key = RPRRYVQPPEMIGPMRPAQFSDEV [E18A]
Response: 3.81

Prompt: Value lookup for protein stability index; key = RPRRYVQPPEMIGPMRPEWFSDEV [Q19W]
Response: 3.12

Prompt: Value lookup for protein stability index; key = RPRRCVQPPEMIGPMRPEQFSDEV [Y5C]
Response: 3.2

Prompt: Value lookup for protein stability index; key = RPRRYVQPPEMIGPMYPEQFSDEV [R16Y]
Response: 4.02

Prompt: Value lookup for protein stability index; key = RPRRYVQPPEMIGPMRPEQFSEEV [D22E]
Response: 3.83

Prompt: Value lookup for protein stability index; key = RPRRYVQPPEIIGPMRPEQFSDEV [M11I]
Response: 3.38

Prompt: Value lookup for protein stability index; key = RPRRYVQPPEMIGPMRPETFSDEV [Q19T]
Response: 4.09

Prompt: Value lookup for protein stability index; key = RPRRYVQPPEMIGPMRPEQFSYEV [D22Y]
Response: 2.77

Prompt: Value lookup for protein stability index; key = RPCRYVQPPEMIGPMRPEQFSDEV [R3C]
Response: 3.1

Prompt: Value lookup for protein stability index; key = RKRRYVQPPEMIGPMRPEQFSDEV [P2K]
Response: 3.24

Prompt: Value lookup for protein stability index; key = RPRRYVQMPEMIGPMRPEQFSDEV [P8M]
Response: 3.48

Prompt: Value lookup for protein stability index; key = RPRRYVQPPEMIGPMRPEQFPDEV [S21P]
Response: 3.99

Prompt: Value lookup for protein stability index; key = RPRRYVQPPEMIGPMRPEQFSDER [V24R]
Response: 4.47

Prompt: Value lookup for protein stability index; key = RPRRYVQPPEMIGPMRPEQHSDEV [F20H]
Response: 4.04

Prompt: Value lookup for protein stability index; key = RPRRYVQPPEMKGPMRPEQFSDEV [I12K]
Response: 4.62

Prompt: Value lookup for protein stability index; key = RPRRYVQPPEMIGPMRPEQYSDEV [F20Y]
Response: 3.82

Prompt: Value lookup for protein stability index; key = RPRRYVQPPEMIGPMRPEQFSDQV [E23Q]
Response: 3.63

Prompt: Value lookup for protein stability index; key = RPRRYVQPPEMIGPMRPEQFSDLV [E23L]
Response: 3.08

Prompt: Value lookup for protein stability index; key = RFRRYVQPPEMIGPMRPEQFSDEV [P2F]
Response: 2.81

Prompt: Value lookup for protein stability index; key = RPRRPVQPPEMIGPMRPEQFSDEV [Y5P]
Response: 4.32

Prompt: Value lookup for protein stability index; key = RPRRYVQPPEMIGPMRPEQFSDEW [V24W]
Response: 4.01

Prompt: Value lookup for protein stability index; key = RPRRYVQPPEMIGPVRPEQFSDEV [M15V]
Response: 4.49

Prompt: Value lookup for protein stability index; key = RPRRYVQPPEMIGPMRPEQFSGEV [D22G]
Response: 3.62

Prompt: Value lookup for protein stability index; key = RPRMYVQPPEMIGPMRPEQFSDEV [R4M]
Response: 4.07

Prompt: Value lookup for protein stability index; key = RPRRYVQPPEMIGPMRPEQFSDTV [E23T]
Response: 3.75

Prompt: Value lookup for protein stability index; key = RPRRIVQPPEMIGPMRPEQFSDEV [Y5I]
Response: 3.31

Prompt: Value lookup for protein stability index; key = NPRRYVQPPEMIGPMRPEQFSDEV [R1N]
Response: 3.93

Prompt: Value lookup for protein stability index; key = RPRRYVQPPEMIGPMRPEQFNDEV [S21N]
Response: 3.87

Prompt: Value lookup for protein stability index; key = RPRRYVQPPEMIGPMRPEDFSDEV [Q19D]
Response: 3.69

Prompt: Value lookup for protein stability index; key = RPRRYVQPAEMIGPMRPEQFSDEV [P9A]
Response: 3.75

Prompt: Value lookup for protein stability index; key = RPFRYVQPPEMIGPMRPEQFSDEV [R3F]
Response: 2.21

Prompt: Value lookup for protein stability index; key = RPRRYWQPPEMIGPMRPEQFSDEV [V6W]
Response: 3.18

Prompt: Value lookup for protein stability index; key = RPRRYVQPPEMIGPMRPEQCSDEV [F20C]
Response: 4.64

Prompt: Value lookup for protein stability index; key = RPRRYVQPPEMIGPMRPKQFSDEV [E18K]
Response: 3.43

Prompt: Value lookup for protein stability index; key = RPRRYVQPPEMIGPMRPEQFSDDV [E23D]
Response: 3.77

Prompt: Value lookup for protein stability index; key = RPRRYVQPPEMIGPMRPEQFSDGV [E23G]
Response: 3.46

Prompt: Value lookup for protein stability index; key = RPRRYVTPPEMIGPMRPEQFSDEV [Q7T]
Response: 4.01

Prompt: Value lookup for protein stability index; key = RPRRYVQPPEMIGPMRPEQFSDYV [E23Y]
Response: 2.76

Prompt: Value lookup for protein stability index; key = RPRRYVQPPEMIGPMRPEQFSFEV [D22F]
Response: 2.16

Prompt: Value lookup for protein stability index; key = RPRRYVQPPETIGPMRPEQFSDEV [M11T]
Response: 3.74

Prompt: Value lookup for protein stability index; key = RPRRGVQPPEMIGPMRPEQFSDEV [Y5G]
Response: 4.49

Prompt: Value lookup for protein stability index; key = RPRRYVQPPEEIGPMRPEQFSDEV [M11E]
Response: 3.88

Prompt: Value lookup for protein stability index; key = RPRRYVQPCEMIGPMRPEQFSDEV [P9C]
Response: 4.24

Prompt: Value lookup for protein stability index; key = RPRRYGQPPEMIGPMRPEQFSDEV [V6G]
Response: 4.18

Prompt: Value lookup for protein stability index; key = RPRRNVQPPEMIGPMRPEQFSDEV [Y5N]
Response: 4.17

Prompt: Value lookup for protein stability index; key = RPRRYVQPPEMIGPMRPEQFSSEV [D22S]
Response: 3.95

Prompt: Value lookup for protein stability index; key = RARRYVQPPEMIGPMRPEQFSDEV [P2A]
Response: 3.59

Prompt: Value lookup for protein stability index; key = RPRRYVQPPEMIGPMRPEQFEDEV [S21E]
Response: 3.73

Prompt: Value lookup for protein stability index; key = RPRRYVQPPEMIGPMRPEKFSDEV [Q19K]
Response: 3.98

Prompt: Value lookup for protein stability index; key = RPRRYVQPPIMIGPMRPEQFSDEV [E10I]
Response: 3.69
